B1: Double-stranded RNA-binding protein Staufen homolog 1, residues 183 to 249; numbered along this chain, O95793 (parent)
chain: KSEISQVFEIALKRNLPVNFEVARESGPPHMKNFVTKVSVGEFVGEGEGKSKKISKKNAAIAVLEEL

- Variants of: B1
- Test protocol: abundance fitness (aPCA) (normalised: wild type 0, dead -1); higher = more abundant; growth selection in yeast, the domain comes from the species named
- Assay conditions: Homo sapiens
Given measured abundance fitness, output Criterion met if it is greater than or equal to -0.1 and Criterion not met if not.

# Mutant designation, Class assignment
rows = [
    ("R24A", "Criterion not met"),
    ("V40N", "Criterion not met"),
]

In: Could you verify whether the entry `N19M` shows abundance fitness of no less than -0.1?
Out: Criterion met

In: Could you verify whether the entry `V63L` shows abundance fitness of no less than -0.1?
Out: Criterion not met

In: Could you verify whether the entry `R24S` shows abundance fitness of no less than -0.1?
Out: Criterion met
